Where do these numbers come from? They come from patent US20230139171A1.

Target: human TLR8 (Homo sapiens)
Construct: host or cells: HEK-Blue cells
Sequence (Q9NR97 27-1041): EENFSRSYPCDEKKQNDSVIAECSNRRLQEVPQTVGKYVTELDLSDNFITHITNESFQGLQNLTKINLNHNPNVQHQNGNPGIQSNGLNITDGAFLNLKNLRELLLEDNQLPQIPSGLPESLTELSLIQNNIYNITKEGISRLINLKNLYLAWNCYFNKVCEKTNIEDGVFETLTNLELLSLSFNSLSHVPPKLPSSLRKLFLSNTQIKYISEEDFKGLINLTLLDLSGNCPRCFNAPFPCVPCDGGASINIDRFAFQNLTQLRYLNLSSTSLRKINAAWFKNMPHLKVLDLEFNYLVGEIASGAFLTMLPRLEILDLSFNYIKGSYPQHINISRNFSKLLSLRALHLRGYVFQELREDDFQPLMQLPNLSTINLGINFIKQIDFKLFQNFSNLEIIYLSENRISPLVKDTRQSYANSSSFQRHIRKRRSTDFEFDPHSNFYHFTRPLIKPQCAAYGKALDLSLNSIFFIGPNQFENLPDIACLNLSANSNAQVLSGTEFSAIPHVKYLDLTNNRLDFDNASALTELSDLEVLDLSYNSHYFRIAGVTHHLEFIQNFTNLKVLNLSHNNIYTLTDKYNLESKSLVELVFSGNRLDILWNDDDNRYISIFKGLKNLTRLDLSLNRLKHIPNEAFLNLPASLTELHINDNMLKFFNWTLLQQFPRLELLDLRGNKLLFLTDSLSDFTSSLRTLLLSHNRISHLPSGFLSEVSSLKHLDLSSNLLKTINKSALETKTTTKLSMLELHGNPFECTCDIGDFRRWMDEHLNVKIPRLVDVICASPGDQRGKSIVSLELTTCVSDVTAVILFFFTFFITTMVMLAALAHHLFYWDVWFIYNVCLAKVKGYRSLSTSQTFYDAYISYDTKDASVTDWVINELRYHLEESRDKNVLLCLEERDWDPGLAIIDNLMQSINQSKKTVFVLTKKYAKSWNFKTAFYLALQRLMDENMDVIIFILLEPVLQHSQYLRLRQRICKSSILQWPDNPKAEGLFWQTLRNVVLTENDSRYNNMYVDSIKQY
Test: TLR8 inhibition reporter assay (HEK-Blue cells, SEAP reporter, R848 stimulation)
Type: cell-based
Conditions: HEK-Blue cells overexpressing human TLR8, SEAP reporter, R848 15.9 μM; read-out: TLR8 IC50
Source text: TLR7/8/9 Inhibition Reporter Assays HEK-Blue™-cells (Invivogen) overexpressing human TLR7, TLR8 or TLR9 receptors were used for screening inhibitors of these receptors using an inducible SEAP (secreted embryonic alkaline phosphatase) reporter gene under the control of the IFN-β minimal promoter fused to five NF-κB and AP-1-binding sites. […]
pIC50: −log10 of the molar value.
QUANTITY: pIC50

COMPOUND: Cc1c(-c2[nH]c3sc(C4CCC(NC(C)C)CC4)nc3c2C(C)C)cn2ncnc2c1C (single isomer, unassigned) [Example 195]
pIC50: 8.78

1: Cc1c(-c2[nH]c3sc(C(=O)NC4CCC(N(C)C)CC4)nc3c2C(C)C)cn2ncnc2c1C (single isomer, unassigned) [Example 368]
2: Cc1c(-c2[nH]c3sc(C4CCC(N5CC6(C5)CS(=O)(=O)C6)CC4)nc3c2C(C)C)cn2ncnc2c1C (single isomer, unassigned) [Example 234]
3: Cc1c(-c2[nH]c3sc(N4CC5(C4)CN(C4COC4)C5)nc3c2C(C)C)cn(C)c(=O)c1C
4: COc1cc(-c2[nH]c3sc(C4CCC(N(C)CCS(C)(=O)=O)CC4)nc3c2C(C)C)cn2ncnc12 (single isomer, unassigned) [Example 165]
5: Cc1c(-c2[nH]c3sc(N4CCN(C5CCC5)C[C@@H]4C)nc3c2C(C)C)cn2ncnc2c1C
Rank entries according to their pIC50, from the largest number down. // respond by listing labels in the order requested
5, 4, 1, 2, 3
(5: 8.73, 4: 7.84, 1: 7.55, 2: 7.22, 3: 6.91)
